- Tested on: PPARg homodimer (NR concentration 180 nM)
- assay remarks: PBM binding z-score (relative to random genomic background probes); higher = stronger binding; sequences stand for … in GC…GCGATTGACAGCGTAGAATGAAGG
Classify by PBM binding z-score. Ranges: lower segment: < 0.3; middle segment: ≥ 0.3 and < 1; upper segment: ≥ 1

>  <sequence record>
TATACAGGGTCTAAGGCCAGAGTACGAATGTCGA

>  <class label>
lower segment

$$$$
>  <sequence record>
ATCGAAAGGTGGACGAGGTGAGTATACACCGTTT

>  <class label>
lower segment

$$$$
>  <sequence record>
CGAACTAGGTCAAAAGACAGTGAAAGGCGACGTA

>  <class label>
middle segment

$$$$

# input for lookup
Prompt line: Just checking, what class would you give CCTTACGGGTCAAGGTTATATCACGGGTGGTACG here?
Response line: upper segment

----------
Entries and their measured PBM binding z-score follow.
- Tested on: LXRa:RXRa (NR concentration 270 nM, RXRa partner concentration 90 nM)
- assay remarks: PBM binding z-score (relative to random genomic background probes); higher = stronger binding; sequences stand for … in GC…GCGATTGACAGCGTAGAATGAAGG

>  <sequence record>
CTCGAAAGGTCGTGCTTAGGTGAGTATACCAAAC

>  <PBM binding z-score>
3.99

$$$$
>  <sequence record>
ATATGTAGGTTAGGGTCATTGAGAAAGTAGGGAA

>  <PBM binding z-score>
4.11

$$$$

Prompt line: Sample CGTCCAAGGTCAGCAGGTCAGAGAAAGCGACGTG — what was its PBM binding z-score?
Response line: 4.01

----------
- Tested on: PPARa:RXRa (NR concentration 270 nM, RXRa partner concentration 90 nM)
- assay remarks: PBM binding z-score (relative to random genomic background probes); higher = stronger binding; sequences stand for … in GC…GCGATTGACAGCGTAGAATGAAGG
// reported PBM binding z-score per item
# print the numeric value only

Examples with answers:
>  <sequence record>
CTCGAAAGGTCAGTTGAGGTGAGTATACGGATAA

>  <attribute measured>
PBM binding z-score

>  <result number>
5.5

$$$$
>  <sequence record>
AGAATGAGGTTACCAAAGATCAGTGAAACGCTTG

>  <attribute measured>
PBM binding z-score

>  <result number>
3.4

$$$$
>  <sequence record>
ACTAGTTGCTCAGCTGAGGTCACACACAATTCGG

>  <attribute measured>
PBM binding z-score

>  <result number>
3.4

$$$$

Prompt line: Can you share its PBM binding z-score? I mean this sequence: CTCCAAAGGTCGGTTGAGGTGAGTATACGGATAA
Response line: 2.95

Prompt line: # get_value(readout='PBM binding z-score', item= CGAACTATGTCAAAGGACAGTGAAAGGCGACGTA )
Response line: 2.68

Prompt line: Any idea what its PBM binding z-score is? The sequence is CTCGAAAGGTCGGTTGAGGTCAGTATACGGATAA
Response line: 3.83

----------
- System: RARa:RXR (NR concentration 270 nM, RXRa partner concentration 90 nM)
- assay remarks: PBM binding z-score (relative to random genomic background probes); higher = stronger binding; sequences stand for … in GC…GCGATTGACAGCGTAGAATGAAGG
Would you please tag the item met when its PBM binding z-score is 3 or above, and not met when it is below?

Answered examples (10):
>  <sequence record>
CCTACTGGGGCACGAAAGGTCATTGATTCAGTGA

>  <class label>
met

$$$$
>  <sequence record>
CGAACTAGGTCAAAGGACAGTGGAAGGCGACGTA

>  <class label>
not met

$$$$
>  <sequence record>
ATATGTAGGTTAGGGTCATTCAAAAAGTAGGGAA

>  <class label>
met

$$$$
>  <sequence record>
CTATGTCGGTTAAGGGGGTCATTCAGTTTGAAAG

>  <class label>
met

$$$$
>  <sequence record>
ACTCGGAGGACAAAGGTCACAGCTACGCCAGTGA

>  <class label>
met

$$$$
>  <sequence record>
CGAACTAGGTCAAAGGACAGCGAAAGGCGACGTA

>  <class label>
not met

$$$$
>  <sequence record>
TCTGCTAGGTCAGTTGGGCAGCTAACGAGCTGCC

>  <class label>
not met

$$$$
>  <sequence record>
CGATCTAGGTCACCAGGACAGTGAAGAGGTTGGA

>  <class label>
not met

$$$$
>  <sequence record>
CGAACTAGGTCAAAGGACAGTGACAGGCGACGTA

>  <class label>
not met

$$$$
>  <sequence record>
TCGAGTAGGTTACGGGGGTATTCAGGGATGAAGA

>  <class label>
not met

$$$$

Prompt line: Please tell me: is the sequence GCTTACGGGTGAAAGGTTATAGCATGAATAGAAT at or over 3 in terms of PBM binding z-score?
Response line: met

Prompt line: # check: PBM binding z-score of CCTACTGGGCCATTCAGAGGTCATTGTTCATATG is greater than or equal to 3
Response line: met

Prompt line: Threshold query (PBM binding z-score >= 3) on CCTACTGGGCGACGAAAGGTCATTGATTCAGTGA
Response line: met

Prompt line: Hi, just wondering whether GATTCAGGGTCAGCTAGAGGCCAGAGTATGGAAA shows PBM binding z-score of 3 or higher.
Response line: met

Prompt line: Reported PBM binding z-score at or above 3? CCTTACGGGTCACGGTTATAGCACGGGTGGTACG
Response line: met

Prompt line: Hi team, for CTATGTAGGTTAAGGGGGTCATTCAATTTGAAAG , is the recorded PBM binding z-score at or above 3?
Response line: met

Prompt line: Hi team, for CGGAGTAGGTTACGAGGGGGCATTCAGTGCGAAT , is the recorded PBM binding z-score at or above 3?
Response line: met
